Molecular target: STK4 (MST1) (Homo sapiens, UniProt Q13043)
Construct: purchased Invitrogen (SelectScreen platform)
Sequence (Q13043 1-487): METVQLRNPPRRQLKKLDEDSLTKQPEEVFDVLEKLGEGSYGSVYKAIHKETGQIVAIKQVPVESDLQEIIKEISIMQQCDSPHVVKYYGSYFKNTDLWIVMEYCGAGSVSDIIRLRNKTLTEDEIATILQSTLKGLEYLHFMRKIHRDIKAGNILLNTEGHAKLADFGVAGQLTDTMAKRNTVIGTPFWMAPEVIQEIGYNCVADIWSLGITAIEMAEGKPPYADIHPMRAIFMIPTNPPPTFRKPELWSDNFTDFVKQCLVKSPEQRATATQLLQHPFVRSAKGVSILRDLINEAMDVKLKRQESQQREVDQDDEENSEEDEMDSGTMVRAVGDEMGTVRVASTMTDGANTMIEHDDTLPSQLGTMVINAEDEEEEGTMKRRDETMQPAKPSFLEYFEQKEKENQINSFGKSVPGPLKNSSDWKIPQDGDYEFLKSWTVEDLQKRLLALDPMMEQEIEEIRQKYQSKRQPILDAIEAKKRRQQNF
Experiment: SelectScreen kinase specificity survey
Type: biochemical
Settings: estimated, abridged dose response curve, read-out: Kinase inhibitory activity EC50
RECORDED ENDPOINT: EC50 (nM)
Write the answer as a number in nM, unit excluded.

[Q] Could you share which EC50 value was measured for `CN(C)CCCNc1ccc2ncn3c4ccc5[nH]ncc5c4c(=O)c1c23` ?
[A] 2170
